Where do the numbers come from? From paper PMC11672292.

assay: Pharmacokinetics and tissue distribution after single intravenous administration; type: in vivo, mouse; conditions: ICR, mouse, heart, iv; mice, single i.v. 10 mg/kg; 0.5 h; read-out: Concentration of (+)3C-20, Heart
measure-name: concentration at 0.5 h (ng/g)
Numbers only, in ng/g.

Given the entry O=C(CCc1ccc(C(F)(F)F)cc1)O[C@@H]1C(=O)NCCc2c([nH]c3ccccc23)[C@H]1c1ccc(C(F)(F)F)cc1 [(+)3C-20] , report its measured concentration at 0.5 h.
4510

---

Test: Pharmacokinetics and tissue distribution after single intravenous administration
Type: in vivo, mouse
Settings: ICR, mouse, kidney, iv; mice, single i.v. 10 mg/kg; 6 h; read-out: Concentration of (+)3C-20, Kidney
Protocol: Pharmacokinetic studies were performed as previously described.^[ [63] ^] Briefly, ICR mice were fasted without water for 16 h before drug administration and allowed access to food and water freely after administration. […]
measure-name: concentration at 6 h (ng/g)
Answers are plain numbers, in ng/g.

Given the entry O=C(CCc1ccc(C(F)(F)F)cc1)O[C@@H]1C(=O)NCCc2c([nH]c3ccccc23)[C@H]1c1ccc(C(F)(F)F)cc1 [(+)3C-20] , report its measured concentration at 6 h.
299
